Test Details: small-molecule microarray binders of probe aCHRDL2, primary screen, biochemical, biotinylated probe, 635/667 nm fluorescence (AID 1100)
Measurement Conditions: higher = more signal
Endpoint: composite z-score
Could you keep your reply to the number by itself?

Consider the following illustrative entries.
>  <Molecule>
CC(C)(C)OC(=O)CC[C@]1(C(=O)NCC(O)CO)N=C(c2ccc(OCCCO)cc2)O[C@H]1c1ccccc1 (stereo partly drawn)

>  <Endpoint>
composite z-score

>  <Result Value>
0.897

$$$$
>  <Molecule>
Cc1ccc(S[C@]2(C(=O)O)CC(=O)N(C3Cc4ccccc4C3)[C@@H]2c2ccc(CO)cc2)cc1

>  <Endpoint>
composite z-score

>  <Result Value>
1.08

$$$$
>  <Molecule>
C=CC1c2cc(O)c(OC)cc2CCN1Cc1cc2c(cc1Br)OCO2 (stereo not drawn)

>  <Endpoint>
composite z-score

>  <Result Value>
1.04

$$$$
>  <Molecule>
COCCOC(=O)N1C(=O)[C@@]2(c3ccccc31)[C@H](C(=O)N1CCN(c3ncccn3)CC1)[C@H]1C(=O)O[C@H](c3ccccc3)[C@H](c3ccccc3)N1[C@@H]2c1ccc(O)cc1

>  <Endpoint>
composite z-score

>  <Result Value>
0.573

$$$$

**Q:** Assign composite z-score to the following record: CCOc1cc(C(O)C2C=CC3C(=O)N(C)C(=O)C3N2Nc2ccccc2)ccc1O (stereo not drawn)
**A:** 0.0692

**Q:** Assign composite z-score to the following record: `CCC[C@@H]1C[C@@]1(CCC)[C@@H](NC(=O)OCc1ccccc1)c1ccc(-c2ccccc2)cc1`
**A:** 0.565

**Q:** Assign composite z-score to the following record: `CCCC[C@@H]1C[C@H]1[C@@H](NC(=O)Cc1ccccc1)c1ccc(-c2ccccc2)cc1`
**A:** 0.712

**Q:** Assign composite z-score to the following record: CC(CO)N1C(=O)[C@@H]2[C@H]3C(=O)OCC=C[C@H]3OC23C=CCN(C(C)(C)C)C(=O)[C@@H]13 (stereo partly drawn)
**A:** 0.129

====

Target Or System: Torsin-1A-interacting protein 1 (Homo sapiens) (UniProt Q5JTV8)
Sequence (Q5JTV8 whole entry, looked up): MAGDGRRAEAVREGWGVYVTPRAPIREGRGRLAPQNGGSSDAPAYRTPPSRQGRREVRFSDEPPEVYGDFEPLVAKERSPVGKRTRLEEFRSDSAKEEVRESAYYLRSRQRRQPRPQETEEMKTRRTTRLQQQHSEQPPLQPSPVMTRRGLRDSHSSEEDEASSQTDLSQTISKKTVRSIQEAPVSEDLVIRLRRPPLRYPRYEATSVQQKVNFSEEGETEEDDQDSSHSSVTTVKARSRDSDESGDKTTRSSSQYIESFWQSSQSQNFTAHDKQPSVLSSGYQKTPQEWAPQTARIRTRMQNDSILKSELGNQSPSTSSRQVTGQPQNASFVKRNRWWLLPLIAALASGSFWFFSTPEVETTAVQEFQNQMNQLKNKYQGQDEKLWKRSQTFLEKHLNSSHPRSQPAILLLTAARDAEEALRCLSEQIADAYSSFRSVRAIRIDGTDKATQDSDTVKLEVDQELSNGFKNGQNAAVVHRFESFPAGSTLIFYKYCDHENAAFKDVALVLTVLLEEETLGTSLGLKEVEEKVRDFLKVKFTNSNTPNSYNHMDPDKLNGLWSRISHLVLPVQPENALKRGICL
Test Details: LAP1 binders from COS7 cell lysate, primary screen, small-molecule microarray, 635/667 nm fluorescence (AID 1116)
Measurement Conditions: COS7-hLAP1 lysate binding, 635 nm fluorescence, higher = more signal
Endpoint: composite z-score
Could you keep your reply to the number by itself?

>  <Molecule>
COC(=O)C(CC#Cc1ccc2c(c1)[C@]1(C(=O)N2)[C@H](c2ccccc2OCCO)N2[C@H](c3ccccc3)[C@H](c3ccccc3)OC(=O)[C@H]2[C@@H]1C(=O)NC[C@H](O)c1ccccc1)C(=O)OC

>  <Endpoint>
composite z-score

>  <Result Value>
2.19

$$$$
>  <Molecule>
NC(N)=NCCCn1cc(CNC(=O)[C@@H](N)Cc2ccccc2)nn1

>  <Endpoint>
composite z-score

>  <Result Value>
0.984

$$$$
>  <Molecule>
O=C1OCC=C[C@H]2OC34C=CCN(Cc5ccccc5)C(=O)[C@H]3N(CCCCCCO)C(=O)[C@@H]4[C@@H]12 (some centres not stated)

>  <Endpoint>
composite z-score

>  <Result Value>
2.46

$$$$
>  <Molecule>
C=C(/C(=C/C[C@@H](OC(C)=O)c1cccc(OCCO)c1)c1cc(C(=O)OC)ccc1OC)C(C)C

>  <Endpoint>
composite z-score

>  <Result Value>
0.189

$$$$
>  <Molecule>
COc1cc2c(cc1OC)CN(C(=O)[C@@H]1[C@H]3C(=O)O[C@H](c4ccccc4)[C@H](c4ccccc4)N3[C@H](c3ccc(OCCO)cc3)[C@@]13C(=O)Nc1ccccc13)CC2

>  <Endpoint>
composite z-score

>  <Result Value>
1.14

$$$$
>  <Molecule>
COCCCNC(=O)[C@@]1(Cc2ccccc2N=[N+]=[N-])N=C(c2ccc(OCCCO)cc2)O[C@H]1c1ccccc1

>  <Endpoint>
composite z-score

>  <Result Value>
1.63

$$$$

**Q:** Assign composite z-score to the following record: `NCCCCCCNC(=O)[C@@H]1C[C@@H]2C(=O)N[C@@H](CCCCN)C(=O)N2[C@@H]1c1cccc(OCCO)c1`
**A:** 0.882

**Q:** Assign composite z-score to the following record: `O=C(NCCCCCNC(=O)/C(Cc1ccccc1)=N/O)OCc1ccccc1`
**A:** 0.154

**Q:** Assign composite z-score to the following record: `CC(C)[Si](C#C[Si](C(C)C)(C(C)C)C(C)C)(O[C@H](C)c1cn([C@H](CO)Cc2ccccc2)nn1)C(C)C`
**A:** 0.227

**Q:** Assign composite z-score to the following record: `COC(=O)c1c2oc(c1C(=O)OC)C(=O)N(Cc1ccccc1)Cc1cn(nn1)C[C@H](Cc1ccccc1)NC(=O)N[C@H](CO)CC2`
**A:** 0.678

**Q:** Assign composite z-score to the following record: NC(=O)N1C(=O)C2C(C1=O)C1C=C(CCCO)C2C(c2cccs2)N1Cc1cccc(OC(F)(F)F)c1 (configuration not stated)
**A:** 1.06

**Q:** Assign composite z-score to the following record: CCCCCCCCCCC(O)C1C=CC2C(=O)N(C)C(=O)C2N1Nc1ccc([N+](=O)[O-])cc1[N+](=O)[O-] (configuration not stated)
**A:** 1.83

**Q:** Assign composite z-score to the following record: `COc1ccc(CCN2C(=O)[C@@]3(Cc4ccccc42)c2ccccc2C(=O)N(Cc2ccccc2OC)[C@H]3c2ccc(CO)cc2)cc1`
**A:** -0.119

**Q:** Assign composite z-score to the following record: `[N-]=[N+]=NCc1ccccc1C[C@@]1(C(=O)N2CCCCC2)N=C(c2ccc(OCCCO)cc2)O[C@@H]1c1ccccc1`
**A:** 2.15

**Q:** Assign composite z-score to the following record: CC(CO)N1C(=O)[C@@H]2[C@H]3C(=O)OCC=C[C@H]3OC23C=CCN(Cc2ccccc2)C(=O)[C@@H]13 (some centres not stated)
**A:** -0.5

**Q:** Assign composite z-score to the following record: `COc1ccc(NC(=O)O[C@H]2[C@H](OC(=O)Nc3ccccc3)[C@@H](OC(=O)Nc3ccccc3)[C@@H](OC)O[C@@H]2CO)cc1`
**A:** 1.25

**Q:** Assign composite z-score to the following record: `COCCOC(=O)N1C(=O)[C@@]2(c3cc(C#CC4=CCCCC4)ccc31)[C@H](c1ccccc1OCCO)N1[C@H](c3ccccc3)[C@H](c3ccccc3)OC(=O)[C@H]1[C@@H]2C(=O)N1CCCCCCC1`
**A:** 1.08

**Q:** Assign composite z-score to the following record: [N-]=[N+]=Nc1ccccc1[C@@H]1OC(c2ccc(OCCCO)cc2)=N[C@]1(Cc1ccccc1)C(=O)NCC(O)CO (some centres not stated)
**A:** 2.95

**Q:** Assign composite z-score to the following record: C=CCC(OC(C)=O)[C@@H]1[C@@H](N(Cc2ccc(-c3cccc(C(F)(F)F)c3)o2)C(=O)c2ccc(C)cc2)c2cc(OCCCO)ccc2N1C(=O)c1ccc2ccccc2c1 (some centres not stated)
**A:** -0.048

**Q:** Assign composite z-score to the following record: Cc1cc(C)c(C(O)C2C=CC3C(=O)N(c4ccccc4)C(=O)C3N2Nc2ccc(C(C)C)cc2)c(C)c1 (configuration not stated)
**A:** 1.27

**Q:** Assign composite z-score to the following record: `O=C1O[C@@H](c2ccccc2)[C@@H](c2ccccc2)N2[C@@H](c3ccccc3OCCO)[C@]3(C(=O)Nc4ccc(C#CCCO)cc43)[C@@H](C(=O)N3CCCCCCC3)[C@H]12`
**A:** 5.67

**Q:** Assign composite z-score to the following record: `COCCOC(=O)N1C(=O)[C@@]2(c3cc(C#Cc4ccc(OC)cc4)ccc31)[C@H](c1ccc(O)cc1)N1[C@H](c3ccccc3)[C@H](c3ccccc3)OC(=O)[C@H]1[C@@H]2C(=O)N1CCCCCCC1`
**A:** 2.14

**Q:** Assign composite z-score to the following record: COC(=O)C1=CC(CCCO)=CC(C2CC2)N(C)C=C1C(=O)OC (configuration not stated)
**A:** 1.03

**Q:** Assign composite z-score to the following record: `CCCCO[C@H]1C[C@H]2C(I)=C[C@@H]1C(=O)[C@]21CO1`
**A:** -0.243

**Q:** Assign composite z-score to the following record: `CC1=C[C@@]2(CO)C(=O)[C@]3(CO3)[C@@H]1[C@H]1[C@]2(C)C=C(CO)C(=O)[C@]12CO2`
**A:** -0.312

**Q:** Assign composite z-score to the following record: [N-]=[N+]=NCc1ccccc1[C@@H]1OC(c2ccc(OCCCO)cc2)=N[C@]1(CCS(=O)(=O)c1ccccc1)C(=O)NCC(O)CO (some centres not stated)
**A:** 4.4

**Q:** Assign composite z-score to the following record: `C=CCOC(=O)[C@H]1[C@@H]2C(=O)O[C@@H](c3ccccc3)[C@@H](c3ccccc3)N2[C@@H](c2ccc(OCCOC(=O)[C@H]3C[C@H]4C(=O)N[C@@H](CC(C)C)C(=O)N4[C@H]3c3cccc(OCCO)c3)cc2)[C@]12C(=O)Nc1ccc(I)cc12`
**A:** -0.302
